# TEST_SYSTEM: Gal6S(b1-3)GlcNAc
# ASSAY_OVERVIEW: glycan array binding signal (z-score within array); higher = stronger binding
# ASSAY_CONTEXT: glycan notation: IUPAC condensed, linker removed
The full list was thinned out, with the strongest signals kept by preference.
Listed binders paired with reported glycan array binding signal (z-score)
OBSERVED_PROPERTY: glycan array binding signal (z-score)

>>> recorded_value("Epa15 (Candida glabrata) (protein) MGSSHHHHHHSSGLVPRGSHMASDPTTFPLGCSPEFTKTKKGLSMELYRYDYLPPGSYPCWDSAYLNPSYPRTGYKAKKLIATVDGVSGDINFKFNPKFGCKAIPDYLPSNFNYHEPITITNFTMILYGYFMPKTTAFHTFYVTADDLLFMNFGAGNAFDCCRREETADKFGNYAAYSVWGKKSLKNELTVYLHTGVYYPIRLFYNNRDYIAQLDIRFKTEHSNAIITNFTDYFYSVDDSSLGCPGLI")
2.78
>>> recorded_value("FimD (Bordetella pertussis) (protein) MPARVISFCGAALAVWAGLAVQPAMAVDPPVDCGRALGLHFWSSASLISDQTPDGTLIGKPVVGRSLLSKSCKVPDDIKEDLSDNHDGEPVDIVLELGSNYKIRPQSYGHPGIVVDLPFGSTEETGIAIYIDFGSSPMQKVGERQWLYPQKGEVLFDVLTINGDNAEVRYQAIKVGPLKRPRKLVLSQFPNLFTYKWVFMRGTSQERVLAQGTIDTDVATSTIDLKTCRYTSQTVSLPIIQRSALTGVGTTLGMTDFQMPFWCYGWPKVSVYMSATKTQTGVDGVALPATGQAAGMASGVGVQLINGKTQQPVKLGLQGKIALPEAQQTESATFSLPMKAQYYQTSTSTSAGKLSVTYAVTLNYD")
0.772
>>> recorded_value("Epa3to2 (Candida glabrata) (protein) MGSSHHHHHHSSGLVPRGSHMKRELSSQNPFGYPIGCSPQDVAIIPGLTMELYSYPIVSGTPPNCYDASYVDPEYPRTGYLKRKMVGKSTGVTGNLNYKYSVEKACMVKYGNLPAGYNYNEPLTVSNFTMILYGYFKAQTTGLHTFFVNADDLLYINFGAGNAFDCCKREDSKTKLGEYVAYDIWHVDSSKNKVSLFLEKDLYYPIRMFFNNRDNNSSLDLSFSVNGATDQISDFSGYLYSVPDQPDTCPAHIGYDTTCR")
0.814
